Data credit: patent US10604555B2

- measurementTarget: human GIP receptor (Homo sapiens)
- Construct: expressed in transfected cells; host or cells: BHK (parent line BHKTS13), BHK CRE luc2P hGIPR clone #5
- Sequence (P48546 22-466): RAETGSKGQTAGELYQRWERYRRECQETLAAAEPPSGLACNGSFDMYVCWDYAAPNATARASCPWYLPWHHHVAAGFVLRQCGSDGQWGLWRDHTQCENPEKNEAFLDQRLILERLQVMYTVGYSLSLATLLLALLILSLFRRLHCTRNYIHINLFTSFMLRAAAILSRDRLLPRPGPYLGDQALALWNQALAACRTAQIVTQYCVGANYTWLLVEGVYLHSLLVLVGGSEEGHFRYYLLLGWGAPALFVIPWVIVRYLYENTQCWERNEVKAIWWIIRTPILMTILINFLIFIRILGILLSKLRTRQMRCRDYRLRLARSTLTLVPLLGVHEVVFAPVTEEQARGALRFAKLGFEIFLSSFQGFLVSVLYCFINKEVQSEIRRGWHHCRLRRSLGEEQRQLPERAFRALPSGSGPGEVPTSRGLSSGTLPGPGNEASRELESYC
- methodSummary: In vitro potency (CRE luciferase; whole cells), BHK CRE luc2P hGIPR
- Format: cell-based
- particulars: 0.2% HSA
*1 amine or outer side, *2 acyl side, *3 side chain or, on linkers, in order; H or OH if unused. Where no end group is shown, it is not given here. Side-chain parts run from the residue outwards. [ ]: non-standard residue; d: D form. The star is where a group is joined. C18 diacid = O=C(O)CCCCCCCCCCCCCCCCC(=O)*; γGlu = O=C(O)[C@H](CCC(=O)[*:2])N[*:1]; Nle = CCCC[C@H](N)C(=O)O; AEEA = NCCOCCOCC(=O)O; Aib = CC(C)(N)C(=O)O
readoutName: pEC50
Lab note: report pEC50 as minus log10 of the concentration in molar units, number only.

**Q:** Provide value of pEC50 for this record tested with human GIP receptor (Homo sapiens): Y[Aib]EGTFISDYSIA[Nle]DKIHQQDFVK([AEEA-AEEA-γGlu-C18 diacid])WLLAQKGKEEDWKHNITQ [Compound 35]
**A:** 11.26

* * *

- measurementTarget: human glucagon receptor (Homo sapiens, UniProt P47871)
- Construct: expressed in transfected cells; host or cells: BHK (parent line BHKTS13), BHK CRE luc2P hGCGR clone #18
- Sequence (P47871 26-477): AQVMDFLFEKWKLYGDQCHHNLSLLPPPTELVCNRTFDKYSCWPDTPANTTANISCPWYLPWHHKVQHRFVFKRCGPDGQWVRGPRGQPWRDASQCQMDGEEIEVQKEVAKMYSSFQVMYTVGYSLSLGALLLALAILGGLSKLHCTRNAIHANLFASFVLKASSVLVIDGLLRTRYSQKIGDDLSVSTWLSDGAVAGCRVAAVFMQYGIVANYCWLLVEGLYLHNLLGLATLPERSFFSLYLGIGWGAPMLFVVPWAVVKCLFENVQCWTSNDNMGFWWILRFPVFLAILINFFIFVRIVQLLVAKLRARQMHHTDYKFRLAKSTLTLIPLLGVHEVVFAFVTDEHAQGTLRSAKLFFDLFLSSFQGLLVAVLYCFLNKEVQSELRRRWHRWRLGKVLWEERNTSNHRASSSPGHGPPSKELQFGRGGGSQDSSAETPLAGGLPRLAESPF
- methodSummary: In vitro potency (CRE luciferase; whole cells), BHK CRE luc2P hGCGR
- Format: cell-based
- particulars: 0.2% HSA
- Description: In Vitro Potency (CRE Luciferase; Whole Cells) The in vitro potency is the measure of human GIP, GLP-1 or glucagon receptor activation, respectively, in a whole cell assay. In vitro potency was determined by measuring the response of the human GIP, GLP-1 or glucagon receptor in a reporter gene assay in individual cell lines. […] The luminescence is measured as the readout for the assay. […] The data from the microtiter plate reader was transferred to GraphPad Prism software. […]
*1 amine or outer side, *2 acyl side, *3 side chain or, on linkers, in order; H or OH if unused. Where no end group is shown, it is not given here. Side-chain parts run from the residue outwards. [ ]: non-standard residue; d: D form. The star is where a group is joined. C18 diacid = O=C(O)CCCCCCCCCCCCCCCCC(=O)*; γGlu = O=C(O)[C@H](CCC(=O)[*:2])N[*:1]; Nle = CCCC[C@H](N)C(=O)O; AEEA = NCCOCCOCC(=O)O; Aib = CC(C)(N)C(=O)O
readoutName: EC50

**Q:** # get_value(readout='EC50', item= Y[Aib]EGTFISDYSIA[Nle]DKIHQQDFVK([AEEA-AEEA-γGlu-C18 diacid])WLLAQKGKEEDWKHNITQ [Compound 35] )
**A:** > 100 nM

* * *

- measurementTarget: human GLP-1 receptor (Homo sapiens, UniProt P43220)
- Construct: expressed in transfected cells; host or cells: BHK (parent line BHKTS13), BHK CRE luc2P hGLP-1R clone #6
- Sequence (P43220 24-463): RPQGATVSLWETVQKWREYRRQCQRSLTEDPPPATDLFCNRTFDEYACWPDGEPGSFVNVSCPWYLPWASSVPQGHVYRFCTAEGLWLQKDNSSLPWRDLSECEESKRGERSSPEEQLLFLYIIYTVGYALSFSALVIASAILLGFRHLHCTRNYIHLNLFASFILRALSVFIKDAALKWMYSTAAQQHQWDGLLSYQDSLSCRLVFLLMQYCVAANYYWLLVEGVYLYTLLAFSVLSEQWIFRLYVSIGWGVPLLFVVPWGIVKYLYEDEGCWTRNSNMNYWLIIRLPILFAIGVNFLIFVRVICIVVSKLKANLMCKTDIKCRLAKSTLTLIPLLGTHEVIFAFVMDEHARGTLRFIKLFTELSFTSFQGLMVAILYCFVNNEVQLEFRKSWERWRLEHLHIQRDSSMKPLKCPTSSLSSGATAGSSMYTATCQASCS
- methodSummary: In vitro potency (CRE luciferase; whole cells), BHK CRE luc2P hGLP-1R
- Format: cell-based
- particulars: 0.2% HSA
pEC50: −log10 of the molar value. *1 amine or outer side, *2 acyl side, *3 side chain or, on linkers, in order; H or OH if unused. Where no end group is shown, it is not given here. Side-chain parts run from the residue outwards. [ ]: non-standard residue; d: D form. The star is where a group is joined. C18 diacid = O=C(O)CCCCCCCCCCCCCCCCC(=O)*; γGlu = O=C(O)[C@H](CCC(=O)[*:2])N[*:1]; Nle = CCCC[C@H](N)C(=O)O; AEEA = NCCOCCOCC(=O)O; Aib = CC(C)(N)C(=O)O
readoutName: pEC50

**Q:** # get_value(readout='pEC50', item= Y[Aib]EGTFISDYSIA[Nle]DKIHQQDFVK([AEEA-AEEA-γGlu-C18 diacid])WLLAQKGKEEDWKHNITQ [Compound 35] )
**A:** < 7.00
